molecular target: Polyunsaturated fatty acid 5-lipoxygenase (Rattus norvegicus); conditions: at 1 µM
RECORDED METRIC: inhibition (%)

{"COMPOUND": "CC(C)(O)C1CN(c2ccccc2)NC1=O (stereo not given)", "ASSAY SYSTEM": "Polyunsaturated fatty acid 5-lipoxygenase (Rattus norvegicus)", "UNIT TEXT": "%", "inhibition": 35}
{"COMPOUND": "O=C1NN(c2ccccc2)CC1CCO (stereo not given)", "ASSAY SYSTEM": "Polyunsaturated fatty acid 5-lipoxygenase (Rattus norvegicus)", "UNIT TEXT": "%", "inhibition": 35}
{"COMPOUND": "COCCc1cn(-c2ccccc2)[nH]c1=O", "ASSAY SYSTEM": "Polyunsaturated fatty acid 5-lipoxygenase (Rattus norvegicus)", "UNIT TEXT": "%", "inhibition": 35}

---

Target: UniProt:P12527
Sequence (P12527 whole entry): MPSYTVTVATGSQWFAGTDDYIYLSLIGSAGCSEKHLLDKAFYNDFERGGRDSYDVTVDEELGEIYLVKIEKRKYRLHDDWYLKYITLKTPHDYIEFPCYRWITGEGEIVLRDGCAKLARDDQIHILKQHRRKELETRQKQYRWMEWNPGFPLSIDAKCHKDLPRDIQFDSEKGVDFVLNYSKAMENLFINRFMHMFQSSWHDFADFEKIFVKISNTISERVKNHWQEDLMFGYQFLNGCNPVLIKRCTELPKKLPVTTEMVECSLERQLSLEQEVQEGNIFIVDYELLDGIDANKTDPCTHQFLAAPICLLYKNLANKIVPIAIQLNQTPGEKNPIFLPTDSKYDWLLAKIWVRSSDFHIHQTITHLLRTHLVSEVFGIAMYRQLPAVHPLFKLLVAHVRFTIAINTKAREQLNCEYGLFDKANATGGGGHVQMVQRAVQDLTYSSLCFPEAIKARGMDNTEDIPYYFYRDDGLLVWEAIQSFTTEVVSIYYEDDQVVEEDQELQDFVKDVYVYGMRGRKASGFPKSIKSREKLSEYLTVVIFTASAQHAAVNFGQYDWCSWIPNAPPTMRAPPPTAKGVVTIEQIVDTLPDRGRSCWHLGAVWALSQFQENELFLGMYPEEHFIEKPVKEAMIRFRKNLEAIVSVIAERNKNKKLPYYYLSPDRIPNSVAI
pIC50: −log10 of the molar value.
RECORDED METRIC: pIC50

{"MOLECULE": "COCC1CN(c2ccccc2)NC1=O (centres undefined)", "ASSAY SYSTEM": "UniProt:P12527", "pIC50": 6.23}
{"MOLECULE": "COCCC1CN(c2ccccc2)NC1=O (stereo in doubt; 1f)", "ASSAY SYSTEM": "UniProt:P12527", "pIC50": 6.32}
{"MOLECULE": "COCCC1CCN(c2ccccc2)NC1=O (centres undefined)", "ASSAY SYSTEM": "UniProt:P12527", "pIC50": 6.36}

---

test: Partition coefficient (logP); format: physicochemical; details: octanol/water
RECORDED METRIC: logP

{"COMPOUND": "COCCC1CN(c2ccc(C)cc2)NC1=O (centres undefined)", "VALUE MEASURED": 1.03}
{"COMPOUND": "COCCC1CN(c2ccccc2)NC1=O (stereo in doubt; 1f)", "VALUE MEASURED": 0.53}
{"COMPOUND": "COCCC1C(=O)NN(c2ccccc2)C1C (centres undefined)", "VALUE MEASURED": 1.05}
{"COMPOUND": "COCCC1CN(c2ccc(OC)cc2)NC1=O (centres undefined)", "VALUE MEASURED": 0.45}
{"COMPOUND": "CSC1CN(c2ccccc2)NC1=O (centres undefined)", "VALUE MEASURED": 1.97}
{"COMPOUND": "COCCC1CN(c2ccc(OCc3ccccc3)cc2)NC1=O (centres undefined)", "VALUE MEASURED": 2.22}

[1] COCCC1CN(c2ccc(O)cc2)NC1=O (centres undefined)
[2] CCCOCC1CN(c2ccccc2)NC1=O (centres undefined)
[3] COCCC1CN(c2ccc(Cl)cc2)NC1=O (centres undefined)
# sort list by recorded logP, greatest to least Hello, could you send the labels back in the order asked? Thank you.
2, 3, 1
